- SYSTEM: Estrogen receptor beta (Homo sapiens, UniProt Q92731)
- Sequence (Q92731 whole entry): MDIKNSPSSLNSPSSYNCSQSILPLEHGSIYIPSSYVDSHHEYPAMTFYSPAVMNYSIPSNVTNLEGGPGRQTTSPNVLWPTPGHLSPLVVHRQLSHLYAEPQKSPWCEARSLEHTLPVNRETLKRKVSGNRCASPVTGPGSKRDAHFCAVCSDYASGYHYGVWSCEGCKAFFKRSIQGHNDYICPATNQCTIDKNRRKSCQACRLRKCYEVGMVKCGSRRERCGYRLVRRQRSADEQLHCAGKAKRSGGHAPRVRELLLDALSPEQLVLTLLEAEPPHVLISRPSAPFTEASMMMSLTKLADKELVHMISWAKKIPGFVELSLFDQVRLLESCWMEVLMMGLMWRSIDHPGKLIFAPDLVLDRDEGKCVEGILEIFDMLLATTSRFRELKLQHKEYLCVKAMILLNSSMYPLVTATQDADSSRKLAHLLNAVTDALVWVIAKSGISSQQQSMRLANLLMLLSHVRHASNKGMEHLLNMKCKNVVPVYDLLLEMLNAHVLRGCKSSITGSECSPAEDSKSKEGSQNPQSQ
- TEST METHOD NOTES: biochemical
- Description: In vitro binding affinity for Estrogen receptor beta in HEK293 cells
TEST READOUT: IC50

{"columns": ["SMILES NOTATION", "TEST READOUT", "RESULT"],
 "data": [
  ["Oc1ccc(C2=C(c3ccc(OCCN4CCCCC4)cc3)Oc3ccc(O)cc3S2)cc1", "IC50", "159 nM"]
]}

* * *

What follows is a record of IC50 for Estrogen receptor (Homo sapiens).
TEST READOUT: IC50 (nM)

{"columns": ["COMPOUND", "ENDPOINT UNIT", "RELATION OPERATOR", "NUMERIC RESULT"],
 "data": [
  ["O=C1c2ccc(O)cc2O[C@H](c2ccc(OCCN3CCCCC3)cc2)[C@@H]1c1ccc(O)cc1", "nM", "=", 39],
  ["Oc1ccc([C@@H]2Sc3ccc(O)cc3O[C@@H]2c2ccc(OCCN3CCCCC3)cc2)cc1", "nM", "=", 1.6],
  ["Oc1ccc2c(c1)S[C@@H](c1ccccc1)[C@@H](c1ccc(OCCN3CCCCC3)cc1)O2", "nM", "=", 6.2],
  ["O=S1(=O)c2cc(O)ccc2O[C@H](c2ccc(OCCN3CCCCC3)cc2)[C@@H]1c1ccc(O)cc1", "nM", "=", 1090],
  ["Oc1ccc([C@@H]2Sc3ccccc3O[C@@H]2c2ccc(OCCN3CCCCC3)cc2)cc1", "nM", "=", 10],
  ["[O-][S+]1c2cc(O)ccc2O[C@H](c2ccc(OCCN3CCCCC3)cc2)[C@@H]1c1ccc(O)cc1 (some centres not stated)", "nM", ">", 100000],
  ["Oc1ccc(C2=C(c3ccc(OCCN4CCCCC4)cc3)Oc3ccc(O)cc3S2)cc1", "nM", "=", 1.6]
]}

* * *

- SYSTEM: Estrogen receptor (Rattus norvegicus) (UniProt P06211+Q62986)
- ASSAY CONDITIONS: at 1 mg/kg
- Description: Anti-uterotrophic activity in rats after 1 mg/kg subcutaneous dose for 3 days with estradiol
TEST READOUT: inhibition (%)

{"columns": ["MOLECULE", "ENDPOINT UNIT", "NUMERIC RESULT"],
 "data": [
  ["Oc1ccc([C@@H]2Sc3cc(O)ccc3O[C@H]2c2ccc(OCCN3CCCCC3)cc2)cc1 (racemic)", "%", 77],
  ["Oc1ccc([C@@H]2Sc3cc(O)ccc3O[C@@H]2c2ccc(OCCN3CCCCC3)cc2)cc1 (stereo in doubt; 4-L)", "%", 16],
  ["Oc1ccc([C@@H]2Sc3cc(O)ccc3O[C@@H]2c2ccc(OCCN3CCCCC3)cc2)cc1 (racemic)", "%", 18],
  ["Oc1ccc(C2=C(c3ccc(OCCN4CCCCC4)cc3)Oc3ccc(O)cc3S2)cc1", "%", 55]
]}

* * *

- SYSTEM: Estrogen receptor (Homo sapiens, UniProt P03372)
- Sequence (P03372 whole entry): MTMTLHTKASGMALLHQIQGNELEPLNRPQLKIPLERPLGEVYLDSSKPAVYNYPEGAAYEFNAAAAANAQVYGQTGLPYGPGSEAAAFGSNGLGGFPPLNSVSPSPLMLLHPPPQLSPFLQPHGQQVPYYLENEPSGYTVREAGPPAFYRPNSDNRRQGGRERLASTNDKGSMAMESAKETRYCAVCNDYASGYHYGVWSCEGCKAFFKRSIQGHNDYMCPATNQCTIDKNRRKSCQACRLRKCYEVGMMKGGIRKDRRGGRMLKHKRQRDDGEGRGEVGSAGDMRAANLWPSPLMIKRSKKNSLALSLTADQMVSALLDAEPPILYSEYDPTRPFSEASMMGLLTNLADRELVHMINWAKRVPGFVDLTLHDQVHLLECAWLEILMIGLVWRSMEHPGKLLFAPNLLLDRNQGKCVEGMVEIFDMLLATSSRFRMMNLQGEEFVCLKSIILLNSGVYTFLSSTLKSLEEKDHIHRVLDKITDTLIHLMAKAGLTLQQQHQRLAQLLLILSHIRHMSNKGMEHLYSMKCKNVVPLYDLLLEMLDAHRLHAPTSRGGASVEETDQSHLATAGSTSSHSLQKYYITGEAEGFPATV
- TEST METHOD NOTES: In vitro binding affinity for Estrogen receptor alpha in HEK293 cells
- Assay type: cell-based

{"columns": ["SMILES NOTATION", "IC50"],
 "data": [
  ["Oc1ccc(C2=C(c3ccc(OCCN4CCCCC4)cc3)Oc3ccc(O)cc3S2)cc1", "5.1 nM"]
]}

* * *

- SYSTEM: UniProtKB Q92731
Listed next: entries and their corresponding IC50.
TEST READOUT: IC50 (nM)

{"columns": ["COMPOUND", "ENDPOINT UNIT", "RELATION OPERATOR", "NUMERIC RESULT"],
 "data": [
  ["Oc1ccc(C2=C(c3ccc(OCCN4CCCCC4)cc3)Oc3ccc(O)cc3S2)cc1", "nM", "=", 5.1],
  ["[O-][S+]1c2cc(O)ccc2O[C@H](c2ccc(OCCN3CCCCC3)cc2)[C@@H]1c1ccc(O)cc1 (some centres not stated)", "nM", ">", 100000],
  ["O=S1(=O)c2cc(O)ccc2O[C@H](c2ccc(OCCN3CCCCC3)cc2)[C@@H]1c1ccc(O)cc1", "nM", "=", 5950],
  ["Oc1ccc2c(c1)S[C@@H](c1ccccc1)[C@@H](c1ccc(OCCN3CCCCC3)cc1)O2", "nM", "=", 183],
  ["Oc1ccc([C@@H]2Sc3ccccc3O[C@@H]2c2ccc(OCCN3CCCCC3)cc2)cc1", "nM", "=", 70],
  ["Oc1ccc([C@@H]2Sc3ccc(O)cc3O[C@@H]2c2ccc(OCCN3CCCCC3)cc2)cc1", "nM", "=", 45],
  ["O=C1c2ccc(O)cc2O[C@H](c2ccc(OCCN3CCCCC3)cc2)[C@@H]1c1ccc(O)cc1", "nM", "=", 2730]
]}
